Assayed system: KiSS-1 receptor (Homo sapiens)
Sequence (Q969F8 whole entry): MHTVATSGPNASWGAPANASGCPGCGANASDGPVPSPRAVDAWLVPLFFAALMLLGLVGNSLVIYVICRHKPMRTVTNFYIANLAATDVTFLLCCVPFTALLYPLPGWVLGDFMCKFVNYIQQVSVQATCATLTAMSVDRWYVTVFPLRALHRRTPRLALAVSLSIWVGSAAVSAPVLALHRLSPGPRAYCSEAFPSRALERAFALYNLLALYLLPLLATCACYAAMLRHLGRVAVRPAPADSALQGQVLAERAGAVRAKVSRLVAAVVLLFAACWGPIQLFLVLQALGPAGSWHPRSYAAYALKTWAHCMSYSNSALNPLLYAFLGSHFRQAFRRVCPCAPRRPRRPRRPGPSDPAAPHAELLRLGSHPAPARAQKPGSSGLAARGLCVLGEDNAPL
Assay explanation: Agonist activity at human KISS1R transfected in CHO cells assessed as intracellular calcium flux after 24 hrs by functional FLIPR assay
Where a SMILES comes first, the peptide text is derived from it. [ ]: non-standard residue; d: D form. Arg(Me) = CNC(=N)NCCC[C@H](N)C(=O)O; d4Pal = N[C@H](Cc1ccncc1)C(=O)O; azaGly = NNC(=O)O
Measured pEC50 of individual entries
Reminder that pEC50 is minus the log10 of a molar concentration.

- Compound: "CC(C)C[C@H](NC(=O)CNC(=O)[C@H](Cc1ccccc1)NC(=O)[C@H](CO)NC(=O)[C@H](CC(N)=O)NC(=O)[C@H](Cc1c[nH]c2ccccc12)NC(=O)[C@H](CC(N)=O)NC(=O)[C@@H](N)Cc1ccc(O)cc1)C(=O)N[C@@H](CCCNC(=N)N)C(=O)N[C@@H](Cc1ccccc1)C(N)=O"
  Assayed system: "KiSS-1 receptor (Homo sapiens)"
  pEC50: 9.02
- Compound: "CCCC(=O)N[C@H](Cc1ccc(O)cc1)C(=O)N[C@H](Cc1c[nH]c2ccccc12)C(=O)N[C@@H](CC(N)=O)C(=O)N[C@H](C(=O)N[C@@H](Cc1ccccc1)C(=O)NNC(=O)N[C@@H](CC(C)C)C(=O)N[C@@H](CCCNC(=N)NC)C(=O)N[C@@H](Cc1c[nH]c2ccccc12)C(N)=O)[C@@H](C)O"
  Assayed system: "KiSS-1 receptor (Homo sapiens)"
  pEC50: 9.10

### Prompt Quote pEC50 reported for "CNC(=N)NCCC[C@H](NC(=O)[C@H](CC(C)C)NC(=O)NNC(=O)[C@H](Cc1ccccc1)NC(=O)[C@@H](NC(=O)[C@H](CC(N)=O)NC(=O)[C@@H](Cc1c[nH]c2ccccc12)NC(=O)[C@H](N)Cc1ccc(O)cc1)[C@@H](C)O)C(=O)N[C@@H](Cc1c[nH]c2ccccc12)C(N)=O" please.
### Response 9.00

### Prompt Quote pEC50 reported for CNC(=N)NCCC[C@H](NC(=O)[C@H](CC(C)C)NC(=O)NNC(=O)[C@H](Cc1ccccc1)NC(=O)[C@H](CO)NC(=O)[C@H](CC(N)=O)NC(=O)[C@@H](Cc1ccncc1)NC(=O)[C@H](N)Cc1ccc(O)cc1)C(=O)N[C@@H](Cc1ccccc1)C(N)=O [KISS1-305] (H-[dY][d4Pal]NSF[azaGly]L[Arg(Me)]F-NH2) please.
### Response 8.59

### Prompt Quote pEC50 reported for "CNC(=N)NCCC[C@H](NC(=O)[C@H](CC(C)C)NC(=O)NNC(=O)[C@H](Cc1ccccc1)NC(=O)[C@@H](NC(=O)[C@H](CC(N)=O)NC(=O)[C@@H](Cc1ccncc1)NC(=O)[C@H](N)Cc1ccc(O)cc1)C(C)(C)C)C(=O)N[C@@H](Cc1c[nH]c2ccccc12)C(N)=O" please.
### Response 8.82
